Assay: in vivo
Conditions: both, beagle, dog, iv, 1 mg/kg

| GIVEN SMILES | clearance / mL/min/kg |
| --- | --- |
| O=C(O)[C@H]1C2CCC(CC2)[C@@H]1Nc1nc(-c2n[nH]c3ncc(F)cc23)nc(C2CC2)c1F | 25.8 |

* * *

Experiment: in vivo
Settings: both, SD, rat, po, 3 mg/kg, AUC0-last

| GIVEN SMILES | AUC(0-t) |
| --- | --- |
| O=C(O)[C@H]1C2CCC(CC2)[C@@H]1Nc1nc(-c2n[nH]c3ncc(F)cc23)nc(C2CC2)c1F | 899 ng·h/mL |

* * *

Test: in vivo
Conditions: female, BALB/c, mouse, po, 30 mg/kg
READOUT KIND: Cmax (ng/mL)

| GIVEN SMILES | UNIT OF MEASUREMENT | MEASURED NUMBER |
| --- | --- | --- |
| O=C(O)[C@H]1C2CCC(CC2)[C@@H]1Nc1nc(-c2n[nH]c3ncc(F)cc23)nc(C2CC2)c1F | ng/mL | 23700 |

* * *

Assay: in vitro
Conditions: human

| GIVEN SMILES | CC50 |
| --- | --- |
| O=C(O)[C@H]1C2CCC(CC2)[C@@H]1Nc1nc(-c2n[nH]c3ncc(F)cc23)nc(C2CC2)c1F | > 10 µM |

* * *

System: Influenza virus B/Lee/40
Experiment: microbe, parasite or virus in culture
Format: cell-based
Conditions: MDCK, read-out: EC50 (mean ± SD)
pEC50: −log10 of the molar value.
READOUT KIND: pEC50

| MOLECULE | RESULT |
| --- | --- |
| CCOC(=O)C1=C[C@@H](OC(CC)CC)[C@H](NC(C)=O)[C@@H](N)C1 | 5.53 |
| O=C(O)[C@H]1C2CCC(CC2)[C@@H]1Nc1nc(-c2n[nH]c3ncc(F)cc23)nc(C2CC2)c1F | < 9.00 |
| O=C(O)[C@H]1C2CCC(CC2)[C@@H]1Nc1nc(-c2c[nH]c3ncc(F)cc23)ncc1F [VX-787, reference compound] | < 8.00 |

* * *

Target: D1 (Homo sapiens)
Sequence (P21728 whole entry): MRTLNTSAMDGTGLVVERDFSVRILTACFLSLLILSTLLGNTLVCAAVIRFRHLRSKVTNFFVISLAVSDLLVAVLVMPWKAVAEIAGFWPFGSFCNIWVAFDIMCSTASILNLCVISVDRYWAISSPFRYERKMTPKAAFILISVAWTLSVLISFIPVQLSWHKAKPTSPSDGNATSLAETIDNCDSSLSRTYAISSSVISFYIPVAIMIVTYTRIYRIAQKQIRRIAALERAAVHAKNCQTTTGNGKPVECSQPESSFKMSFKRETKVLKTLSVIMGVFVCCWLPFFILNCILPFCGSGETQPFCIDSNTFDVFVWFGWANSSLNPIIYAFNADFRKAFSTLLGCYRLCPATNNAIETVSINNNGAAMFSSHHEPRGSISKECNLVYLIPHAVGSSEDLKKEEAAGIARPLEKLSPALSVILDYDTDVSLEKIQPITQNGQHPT
Test: cell-based
pEC50: −log10 of the molar value.

| GIVEN SMILES | pEC50 |
| --- | --- |
| O=C(O)[C@H]1C2CCC(CC2)[C@@H]1Nc1nc(-c2n[nH]c3ncc(F)cc23)nc(C2CC2)c1F | < 4.92 |

* * *

Target or system MST4 (Homo sapiens): recorded IC50 listed per item.

| MOLECULE | IC50 |
| --- | --- |
| O=C(O)[C@H]1C2CCC(CC2)[C@@H]1Nc1nc(-c2c[nH]c3ncc(F)cc23)ncc1F [VX-787, reference compound] | > 10 µM |
| O=C(O)[C@H]1C2CCC(CC2)[C@@H]1Nc1nc(-c2n[nH]c3ncc(F)cc23)nc(C2CC2)c1F [ZSP1273] | > 10 µM |

* * *

Molecular target: CB2 (Homo sapiens, UniProt P34972)
Sequence (P34972 whole entry): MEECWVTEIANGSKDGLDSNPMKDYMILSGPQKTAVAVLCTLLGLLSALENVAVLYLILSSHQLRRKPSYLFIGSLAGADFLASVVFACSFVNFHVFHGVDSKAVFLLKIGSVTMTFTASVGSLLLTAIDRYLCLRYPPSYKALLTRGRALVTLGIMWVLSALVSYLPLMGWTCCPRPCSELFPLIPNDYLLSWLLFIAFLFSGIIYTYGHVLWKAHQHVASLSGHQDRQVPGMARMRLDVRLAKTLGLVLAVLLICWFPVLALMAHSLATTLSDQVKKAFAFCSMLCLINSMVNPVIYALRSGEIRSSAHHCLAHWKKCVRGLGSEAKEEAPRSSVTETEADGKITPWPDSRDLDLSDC
Assay: cell-based
Details: read-out: IC50

| MOLECULE | UNIT OF MEASUREMENT | IC50 |
| --- | --- | --- |
| COc1ccc(C(=O)c2c(C)n(CCN3CCOCC3)c3cc(I)ccc23)cc1 [AM630, reference compound] | nM | 234 |
